Cited source for all entries: PubChem BioAssay (Tox21)

protocol.details: A CellTox Green Cytotoxicity Assay to monitor cytotoxicity in HEK293 cells - 40 hour (AID 1224871); also: nearly all actives have a fitted effect of over 45% in size
experimental.setup: CellTox Green fluorescence; series mostly up to 76.8 µM
Results filed as inconclusive are left out. Calls of active or inactive are those of the source. Calls follow the shape of the dose curve; as a rule, active = well fitted activation curve with a large enough effect in the repeat runs; inconclusive = weak or mixed curves; inactive = flat fitted curve, though single readings scatter.
Labels: yes (1) = active, no (0) = inactive

In [3]: df
Out[3]:
                                    molecule  assigned_class
 0      CC(C)CCCCCOC(=O)CCCCC(=O)OCCCCCC(C)C          no (0)
 1  C=CCNc1nc(NCC=C)nc(N2CCN(C(c3ccc(F)cc3)c3ccc(F)cc3)CC2)n1          no (0)
 2               O=C(CCCCCCC(=O)Nc1ccccc1)NO          no (0)
 3                CNC(=O)N(c1ccccc1)c1ccccc1          no (0)
 4                   Fc1c(F)c(F)c(Br)c(F)c1F          no (0)
 5  CC[C@H](NC(=O)c1cc(F)ccc1NS(=O)(=O)c1cccc2cccnc12)c1ccccc1          no (0)
 6                       O=C(O)c1snc(Cl)c1Cl          no (0)
 7                          CCCCCCCCCOC(C)=O          no (0)
 8  Cc1nc2ccccn2c(=O)c1CCN1CCC(C(=O)c2ccc(F)cc2)CC1          no (0)
 9            COCC(O)CO (stereo unspecified)          no (0)
10            COC(OC)(C(=O)c1ccccc1)c1ccccc1          no (0)
11                 CC1(C)C(=O)N(Br)C(=O)N1Cl          no (0)
12             Cc1ccc(S(=O)(=O)NC2CCCCC2)cc1          no (0)
13  CSc1ccc(Oc2ccc(S(N)(=O)=O)cc2CN(C)C)cc1C          no (0)
14     COC(=O)c1cc(Cl)ccc1NS(=O)(=O)C(F)(F)F          no (0)
15                         O=Cc1c(Cl)cccc1Cl          no (0)
16                              CCCCCCCCSCCO          no (0)
17                                CC(C)=CC=O          no (0)
18      CCc1cccc(N(C)C(N)=Nc2cccc3ccccc23)c1          no (0)
19  CCC(C(=O)OCCN(CC)CC)c1ccccc1 (stereo unspecified)          no (0)
20        CCCCCCCCCCCCCCC[C@H](O)[C@@H](N)CO         yes (1)
21                         OC/C(Br)=C(\Br)CO          no (0)
22          Cc1oncc1C(=O)Nc1ccc(C(F)(F)F)cc1          no (0)
23       CC1(C)C2=CCCC(C)(C)[C@]23CC[C@H]1C3         yes (1)
24                         CC(=N\O)/C(C)=N/O          no (0)
25                         CCOC(=O)c1ccccc1C          no (0)
26  CCN(Cc1cccc(S(=O)(=O)O)c1)c1ccc(C(=C2C=CC(=[N+](CC)Cc3cccc(S(=O)(=O)[O-])c3)C=C2)c2ccccc2)cc1          no (0)
27  CCCOc1ccc(S(=O)(=O)N2CCN(CC)CC2)cc1-c1nc2c(CC)n(Cc3ccccn3)nc2c(=O)[nH]1          no (0)
28  CCOC(=O)C(C)Oc1ccc(Oc2nc3ccc(Cl)cc3o2)cc1 (stereo unspecified)          no (0)
29  COc1ccccc1N=Nc1c(S(=O)(=O)O)cc2cc(S(=O)(=O)O)cc(NC(C)=O)c2c1O          no (0)
30  C=CC(C)(O)CCCC(C)CCCC(C)CCCC(C)C (stereo unspecified)          no (0)
31                   NC(=O)Nc1ccc(Cl)c(Cl)c1          no (0)
32  Cc1cc(OI)c(C(C)C)cc1-c1cc(C(C)C)c(OI)cc1C          no (0)
33                               CCOC(=O)OCC          no (0)
34  Cc1c(C(=O)NN2CCCCC2)nn(-c2ccc(Cl)cc2Cl)c1-c1ccc(Cl)cc1          no (0)
35                 C=CCOC(=O)/C=C\C(=O)OCC=C          no (0)
36          OCC1CC=CCC1 (stereo unspecified)          no (0)
37          COc1cc2[nH]c(=O)[nH]c(=O)c2cc1OC          no (0)
38   CN(C(=O)C(Cl)Cl)c1ccc(OC(=O)c2ccco2)cc1          no (0)
39  NC(=O)N(O)[C@@H]1COc2cc(OCc3ccccc3)ccc21          no (0)
40  COc1ccc(CCC(=O)c2c(O)cc(O[C@@H]3O[C@H](CO)[C@@H](O)[C@H](O)[C@H]3O[C@@H]3O[C@@H](C)[C@H](O)[C@@H](O)[C@H]3O)cc2O)cc1O          no (0)
41          CCN(CC)CCNC(=O)c1ccc(NC(C)=O)cc1          no (0)
42  CC1CC(=O)NN=C1c1ccc(NCC(C)(C)NCC(O)COc2cc(Cl)ccc2C#N)cc1 (stereo unspecified)          no (0)
43  O=C(O)C(Cc1cc(I)c(O)c(I)c1)c1ccccc1 (stereo unspecified)          no (0)
44            O=C(/C=C/c1ccccc1)OCCCc1ccccc1          no (0)
45  CC[C@@H]([C@H](C)O)n1ncn(-c2ccc(N3CCN(c4ccc(OC[C@@H]5CO[C@@](Cn6cncn6)(c6ccc(F)cc6F)C5)cc4)CC3)cc2)c1=O          no (0)

###

tested.on: Voltage-gated inwardly rectifying potassium channel KCNH2 (Homo sapiens)
protocol.details: Human Ether-a-go-go-Related Gene (hERG) channel small molecule antagonists: fluorescence cell-based qHTS assay (AID 1671200); also: nearly all actives have a fitted effect of over 50% in size
experimental.setup: hERG-U2OS cells, FluxOR thallium flux fluorescence; series mostly up to 76.8 µM
Excerpt: National Center for Advancing Translational Sciences [NCATS] U.S. Environmental Protection Agency [EPA] National Institutes of Environmental Health Sciences [NIEHS] National Toxicology Program [NTP] U.S. Food and Drug Administration [FDA] Mutations in the hERG channel cause Long QT (LQT) syndrome. LQT syndrome is a cardiac disorder which can cause ventricle arrhythmia and sudden death. Additionally, compounds which block the hERG channel can cause acquired LQT syndrome. […]
Records with an inconclusive call do not appear. The source made the active and inactive calls. Calls come from the whole dose curve; as a rule, active = well fitted inhibition curve with a large enough effect in the repeat runs; inconclusive = weak or mixed curves; inactive = flat fitted curve, though single readings scatter.
Labels: active, inactive

>>> df
                                   molecule  assigned_class
0  Nc1nc(Cl)nc2c1ncn2[C@@H]1O[C@H](CO)[C@@H](O)[C@@H]1F        inactive
1                              Cc1ccc(S)cc1        inactive
2  CC(=O)[C@H]1CC[C@H]2[C@@H]3C=CC4=CC(=O)CC[C@@]4(C)[C@@H]3CC[C@]12C        inactive
3        Cc1cc2nc3ccc(=[N+](C)C)cc-3sc2cc1N        inactive
4                           CO[Si](C)(OC)OC        inactive
5  O=c1[nH]c2ccc(S(=O)CCN3CCC(Cc4ccc(F)cc4)CC3)cc2o1 (stereo not drawn)          active
6  COC(=O)[C@@H]1CC2=CC(=O)CC[C@]2(C)[C@@]23O[C@@H]2C[C@@]2(C)[C@@H](CC[C@@]24CCC(=O)O4)[C@H]13        inactive
7                O=C(C(=O)c1ccccc1)c1ccccc1        inactive

###

protocol.details: qHTS assay to identify small molecule antagonists of the estrogen related receptor (ERR) signaling pathway from Tox21 library - cell viability counter screen (AID 1224834); also: nearly all actives have a fitted effect of over 30% in size
experimental.setup: ERR reporter cells viability, CellTiter-Fluor, 17.5 h; series mostly up to 92.4 µM
Records with an inconclusive call do not appear. Activity calls are given as the source filed them. Calls follow the shape of the dose curve; as a rule, active = well fitted cell-killing curve with a large enough effect in the repeat runs; inconclusive = weak or mixed curves; inactive = flat fitted curve, though single readings scatter.
Labels: Yes for active, No for inactive

>>> df
                                    compound  assigned_class
 0                                    COCCOC             Yes
 1                         C=CC(=O)NCOCC(C)C              No
 2  O=C(CCCN1CCN(c2ccc(F)cc2)CC1)NC1c2ccccc2CSc2ccccc21 (stereo not drawn)              No
 3          CC(Cl)C(Cl)Cl (stereo not drawn)              No
 4  N#C/C(=C1\SCC(c2ccccc2Cl)S1)n1ccnc1 (stereo not drawn)              No
 5                    CCC(=O)OC/C=C/c1ccccc1              No
 6                         O=Cc1c(Cl)cccc1Cl              No
 7       O=C1OCCN1/N=C/c1ccc([N+](=O)[O-])o1              No
 8                    ON(Cc1ccccc1)Cc1ccccc1              No
 9  CCCCC(=O)O[C@]1(C(=O)CO)CC[C@H]2[C@@H]3CCC4=CC(=O)CC[C@]4(C)[C@H]3[C@@H](O)C[C@@]21C              No
10                     COC(=O)CC(=O)C(C)(C)C              No
11                     Nc1ccc(S(=O)(=O)O)cc1              No
12                        CC(C)(CCl)c1ccccc1              No
13    CCCCCCCCCCCC[N+](C)(C)CCCS(=O)(=O)[O-]              No
14                           Cc1ccnc2ccccc12              No
15  O=c1[nH]c2ccc(S(=O)CCN3CCC(Cc4ccc(F)cc4)CC3)cc2o1 (stereo not drawn)              No
16           CC(C)OCC1CO1 (stereo not drawn)              No
17              CCCOC(=O)c1ccc(C(=O)OCCC)nc1              No
